Conditions: in n-hexane, 288.2 K
readout.name: solubility (mole fraction)

P. O=c1cc(-c2ccccc2)c2cc(O)c(O)cc2o1
Q. COc1cc2oc(=O)cc(-c3ccccc3)c2cc1O
// query # return whichever of P and Q has the smaller solubility (mole fraction) Mark your selection by writing its label.
// result P

Provenance of the data: BigSolDB 2.1
